Listing of recorded pEC50 by entry.
- system: GST-LXRβ ligand-binding domain (Homo sapiens, UniProt P55055)
- Construct: amino acids 156-461; NP009052
- method: TR-FRETβ activity assay (NCoA3 coactivator peptide recruitment)
- experimental-parameters: 1 μM 24(S)-25-epoxycholesterol prestimulation
- Description: Recombinant GST-LXRβ ligand-binding domain (LBD; amino acids 156-461; NP009052; SEQ ID NO:4) was expressed in E. coli and purified via gluthatione-sepharose affinity chromatography. […] The reaction was mixed thoroughly, equilibrated for 1 h at 4° C. and vicinity of LXRβ and coactivator peptide was detected by measurement of fluorescence in a VictorX4 multiplate reader (PerkinElmer Life Science) using 340 nm as excitation and 615 and 665 nm as emission wavelengths. […]
pEC50: −log10 of the molar value.

| smiles-record | pEC50 |
| --- | --- |
| O=C(O)c1ccc(-c2cccc(-c3c(-c4ccccc4C4COC4)c4cc(F)ccc4n3S(=O)(=O)c3ccc(Cl)cc3)c2)c(Cl)c1 | > 7.00 |
| O=C(O)c1ccc(-c2cccc(-c3c(-c4ccccc4C4COC4)c4cnccc4n3S(=O)(=O)c3ccc(C(F)F)cc3)c2)c(Cl)c1 | 6.00 to 7.00 |
| COc1c(C(=O)O)ccc(-c2cccc(-c3c(-c4ccccc4C#N)c4cc(F)ccc4n3S(=O)(=O)c3ccc(C(F)F)cc3)c2)c1Cl | > 7.00 |
| N#Cc1sccc1-c1c(-c2ccccc2)n(S(=O)(=O)c2ccc(CC(=O)O)s2)c2ccccc12 | < 5.00 |
| N#Cc1ccncc1-c1c(-c2cccc(-c3cc(F)c(C(=O)O)cc3Cl)c2)n(S(=O)(=O)c2ccc(C(F)F)cc2)c2ccc(F)cc12 | > 7.00 |
| N#Cc1sccc1-c1c(-c2cccs2)n(S(=O)(=O)c2ccc(Cl)cc2)c2ccc(O)cc12 | 6.00 to 7.00 |
| Cc1ccc(S(=O)(=O)n2c(-c3cccc(N4CC(C(=O)O)C4)c3)c(-c3ccsc3C#N)c3cc(F)ccc32)c(F)c1 | 5.00 to 6.00 |

---

- system: GST-LXRβ ligand-binding domain (Homo sapiens)
- Construct: amino acids 156-461; NP009052
- Sequence (P55055 156-460 limits assumed): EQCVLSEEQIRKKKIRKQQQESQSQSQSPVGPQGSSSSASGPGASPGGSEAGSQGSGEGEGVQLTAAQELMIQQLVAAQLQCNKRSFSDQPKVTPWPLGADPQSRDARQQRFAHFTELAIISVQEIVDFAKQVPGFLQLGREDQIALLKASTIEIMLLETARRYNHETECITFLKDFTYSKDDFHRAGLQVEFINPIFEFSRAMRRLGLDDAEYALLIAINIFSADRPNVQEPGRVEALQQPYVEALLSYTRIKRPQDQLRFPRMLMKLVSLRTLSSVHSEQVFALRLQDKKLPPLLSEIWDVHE
- method: TR-FRETβ activity assay (NCoA3 coactivator peptide recruitment)
- experimental-parameters: 1 μM 24(S)-25-epoxycholesterol prestimulation
- Protocol: Recombinant GST-LXRβ ligand-binding domain (LBD; amino acids 156-461; NP009052; SEQ ID NO:4) was expressed in E. coli and purified via gluthatione-sepharose affinity chromatography. […] The reaction was mixed thoroughly, equilibrated for 1 h at 4° C. and vicinity of LXRβ and coactivator peptide was detected by measurement of fluorescence in a VictorX4 multiplate reader (PerkinElmer Life Science) using 340 nm as excitation and 615 and 665 nm as emission wavelengths. […]
pEC50: −log10 of the molar value.

| smiles-record | pEC50 |
| --- | --- |
| Cc1ccc(S(=O)(=O)n2c(-c3cccc(N4CC(C(=O)O)C4)c3)c(-c3ccsc3C#N)c3sccc32)cc1 | 5.00 to 6.00 |
| O=C(O)c1ccc(-c2cccc(-c3c(-c4ccsc4C(F)(F)F)c4cc(F)ccc4n3S(=O)(=O)c3ccc(C(F)F)cc3)c2)c(Cl)c1 | > 7.00 |
| N#CC1=C(c2c(-c3cccc(-c4ccc(C(=O)O)cc4Cl)c3)n(S(=O)(=O)c3ccc(C(F)F)cc3)c3ccc(F)cc23)CCCC1 | < 5.00 |
| Cc1ccc(S(=O)(=O)n2c(-c3cccc(/C=C/C(=O)O)c3)c(-c3ccsc3C#N)c3ccccc32)cc1 | 5.00 to 6.00 |
| Cc1ccc(S(=O)(=O)n2c(-c3cccc(N4CC(C(=O)O)C4)c3)c(-c3ccsc3C#N)c3cc(F)c(Cl)cc32)cc1 | 5.00 to 6.00 |
| Cc1ccc(S(=O)(=O)n2c(-c3cccc(N4CC(C(=O)NC(C)(C)C(=O)O)C4)c3)c(-c3ccsc3C#N)c3cc(F)ccc32)cc1 | 6.00 to 7.00 |
| Cc1ccc(S(=O)(=O)n2c(-c3cccc(N4CC(C(=O)O)C4)c3)c(-c3ccsc3C#N)c3cc(F)c(F)cc32)cc1 | 5.00 to 6.00 |

---

Listing of recorded EC50 by entry.
- system: GST-LXRβ ligand-binding domain (Homo sapiens, UniProt P55055)
- Construct: amino acids 156-461; NP009052
- method: TR-FRETβ activity assay (NCoA3 coactivator peptide recruitment)
- experimental-parameters: 1 μM 24(S)-25-epoxycholesterol prestimulation
- Procedure: Recombinant GST-LXRβ ligand-binding domain (LBD; amino acids 156-461; NP009052; SEQ ID NO:4) was expressed in E. coli and purified via gluthatione-sepharose affinity chromatography. […] The reaction was mixed thoroughly, equilibrated for 1 h at 4° C. and vicinity of LXRβ and coactivator peptide was detected by measurement of fluorescence in a VictorX4 multiplate reader (PerkinElmer Life Science) using 340 nm as excitation and 615 and 665 nm as emission wavelengths. […]

| compound | EC50 |
| --- | --- |
| COc1cc(C(=O)O)ccc1-c1cccc(-c2c(-c3ccccc3C#N)c3cc(F)ccc3n2S(=O)(=O)c2ccc(C(F)F)cc2)c1 | < 100 nM |
| Cc1ccc(S(=O)(=O)n2c(-c3cccc(-c4ccc(C(=O)O)c(C)c4Cl)c3)c(-c3ccsc3C#N)c3cc(F)ccc32)cc1 | 100 to 1000 nM |
| N#Cc1cncc(C#N)c1-c1c(-c2cccc(-c3ccc(C(=O)O)cc3Cl)c2)n(S(=O)(=O)c2ccc(C(F)F)cc2)c2ccc(F)cc12 | 100 to 1000 nM |
| N#Cc1sccc1-c1c(-c2cccc(C3CC3C(=O)NO)c2)n(S(=O)(=O)c2ccc(Cl)cc2)c2ccccc12 (stereo not shown) | 100 to 1000 nM |
| CS(=O)(=O)NC(=O)c1ccc(-c2cccc(-c3c(-c4c(C#N)cccc4C#N)c4cc(F)ccc4n3S(=O)(=O)c3ccc(C(F)F)cc3)c2)c(Cl)c1 | < 100 nM |
| Cc1ccc(S(=O)(=O)n2c(-c3cccc(N4CC(C(=O)O)C4)c3)c(-c3ccsc3C#N)c3cc(C#N)ccc32)cc1 | 1000 to 10000 nM |
| COc1ccc2c(-c3ccsc3C#N)c(-c3cccs3)n(S(=O)(=O)c3ccc(Cl)cc3)c2c1 | 1000 to 10000 nM |

---

- system: GST-LXRβ ligand-binding domain (Homo sapiens, UniProt P55055)
- Construct: amino acids 156-461; NP009052
- method: TR-FRETβ activity assay (NCoA3 coactivator peptide recruitment)
- experimental-parameters: 1 μM 24(S)-25-epoxycholesterol prestimulation
Listing of recorded EC50 by entry.
experimental-endpoint: EC50

| molecule | experimental-endpoint | experimental-result |
| --- | --- | --- |
| N#Cc1sccc1-c1c(-c2cccs2)n(S(=O)(=O)c2ccc(Cl)cc2)c2cc(OCCCC(=O)O)ccc12 | EC50 | 1 to 10 µM |
| Cc1ccc(S(=O)(=O)n2c(-c3cccc(-c4ccc(C(=O)NS(C)(=O)=O)cc4Cl)c3)c(-c3ccsc3C#N)c3cc(F)ccc32)cc1 | EC50 | < 0.1 µM |
| Cc1ccc(S(=O)(=O)n2c(-c3cccc(-c4ccc(CN(C)C)cc4Cl)c3)c(-c3ccsc3C#N)c3cc(F)ccc32)cc1 | EC50 | 0.1 to 1 µM |
| N#Cc1cccc(C#N)c1-c1c(-c2cccc(-c3c(F)cc(C(=O)O)cc3F)c2)n(S(=O)(=O)c2ccc(C(F)F)cc2)c2ccc(F)cc12 | EC50 | < 0.1 µM |
| Cc1ccc(S(=O)(=O)n2c(-c3cccc(N4CC(C(=O)O)C4)c3)c(-c3ccccc3C3COC3)c3cc(F)ccc32)cc1 | EC50 | 0.1 to 1 µM |
| Cc1ncc(S(=O)(=O)n2c(-c3ccccc3)c(-c3ccsc3C#N)c3ccccc32)s1 | EC50 | 1 to 10 µM |
| Cc1ccc(S(=O)(=O)n2c(-c3cccc(C4CC4C(=O)O)c3)c(-c3ccsc3C#N)c3ccncc32)cc1 (stereo not shown) | EC50 | 1 to 10 µM |

---

- system: LXRβ (Homo sapiens)
- method: LXR Gal4 reporter transient transfection assay (mammalian two-hybrid, HEK293), LXRβ
- Type: cell-based
- Design: LXRβ (amino acids 156-461); expressed in transfected cells; host or cells: HEK293
- experimental-parameters: full length (FL) LXRβ, HEK293; read-out: FL-M2H Gal4β

| smiles-record | system | EC50 |
| --- | --- | --- |
| N#Cc1sccc1-c1c(-c2cccc(N3CCC(C(=O)O)CC3)c2)n(S(=O)(=O)c2ccc(C(F)F)cc2)c2ccc(F)cc12 | LXRβ (Homo sapiens) | < 0.1 µM |
| Cc1ccc(S(=O)(=O)n2c(-c3cccc(-c4ccc(CN(C)C)cc4Cl)c3)c(-c3ccsc3C#N)c3cc(F)ccc32)cc1 | LXRβ (Homo sapiens) | < 0.1 µM |
| N#Cc1cccc(C#N)c1-c1c(-c2cccc(-c3ccc(C(=O)O)cc3)c2)n(S(=O)(=O)c2ccc(C(F)F)cc2)c2ccc(F)cc12 | LXRβ (Homo sapiens) | < 0.1 µM |
